Data credit: ChEMBL document CHEMBL3431459

Kindly state logD for each of the entries shown.
- ASSAY_INFO: SUPPLEMENTARY: Lipophilicity (log D) Determination by high-throughput shake-flask
- Format: physicochemical
- EXPERIMENTAL_SETUP: octanol/water
A bare number is all that is needed in reply.

For O=C(COc1ccccc1)N1CCCC[C@@H]1c1noc(-c2ccc(-n3cnnn3)cc2)n1 , what is its reported logD?
2.92

For O=C(COc1ccccc1)N1CCCC[C@@H]1c1noc(-c2cc([N+](=O)[O-])[nH]n2)n1 , what is its reported logD?
1.07

For Cc1cc(-c2nc([C@H]3CCCCN3C(=O)COc3ccccc3)no2)on1 , what is its reported logD?
2.6

For O=C(O)c1ccc(NC(=O)c2ccc3c(c2)N(S(=O)(=O)c2cccc(Cl)c2)CCS3)cc1 , what is its reported logD?
1.48

For Cc1cc(C(=O)Nc2ccc(C(=O)O)cc2)cc(S(=O)(=O)Nc2cccc(C(F)(F)F)c2)c1C , what is its reported logD?
1.62

For COc1ccc(Cl)cc1S(=O)(=O)N(c1cc(C(=O)Nc2ncc(CC(=O)O)s2)cc2c1OCO2)C(C)C , what is its reported logD?
2.84

For COc1ccc(Cl)cc1S(=O)(=O)N1CCOc2c(F)cc(C(=O)Nc3ccc(CC(=O)O)cc3)cc21 , what is its reported logD?
0.47

For O=C1CCCN1c1cccc(-c2noc([C@H]3CCCCN3C(=O)COc3ccccc3)n2)c1 , what is its reported logD?
3.09

For CC(=O)Nc1cc(-c2n[nH]c([C@H]3CCCCN3C(=O)COc3ccccc3)n2)ccc1F , what is its reported logD?
2.43

For COc1ccc(Cl)cc1S(=O)(=O)N1CCOc2ccc(C(=O)Nc3ccc(-c4noc(=O)[nH]4)cc3)cc21 , what is its reported logD?
2.22

For O=C(O)c1ccc(NC(=O)c2ccc3ccn(S(=O)(=O)c4cccc(Cl)c4)c3c2)cc1 , what is its reported logD?
2.99

For Nc1cccc(-c2n[nH]c([C@H]3CCCCN3C(=O)COc3ccccc3)n2)c1 , what is its reported logD?
2.42

For COc1ccc(Cl)cc1S(=O)(=O)N1CC(C)c2ccc(C(=O)Nc3ccc(C(=O)O)c(Cl)c3)cc21 (stereo not drawn) , what is its reported logD?
0.57

For O=C(Nc1ccc(-c2nnn[nH]2)cc1)c1cccc(NS(=O)(=O)c2cccc(Cl)c2)c1 , what is its reported logD?
0.5

For O=C([C@H]1CCCCN1C(=O)COc1ccccc1)N1Cc2ccc(OCC3CC3)cc2C1 , what is its reported logD?
2.97

For Nc1cc(-c2n[nH]c([C@H]3CCCCN3C(=O)COc3ccccc3)n2)ccn1 , what is its reported logD?
1.95

----------
- TESTED_TARGET: Carnitine O-palmitoyltransferase 2, mitochondrial (Homo sapiens, UniProt P23786)
- Sequence (P23786 whole entry): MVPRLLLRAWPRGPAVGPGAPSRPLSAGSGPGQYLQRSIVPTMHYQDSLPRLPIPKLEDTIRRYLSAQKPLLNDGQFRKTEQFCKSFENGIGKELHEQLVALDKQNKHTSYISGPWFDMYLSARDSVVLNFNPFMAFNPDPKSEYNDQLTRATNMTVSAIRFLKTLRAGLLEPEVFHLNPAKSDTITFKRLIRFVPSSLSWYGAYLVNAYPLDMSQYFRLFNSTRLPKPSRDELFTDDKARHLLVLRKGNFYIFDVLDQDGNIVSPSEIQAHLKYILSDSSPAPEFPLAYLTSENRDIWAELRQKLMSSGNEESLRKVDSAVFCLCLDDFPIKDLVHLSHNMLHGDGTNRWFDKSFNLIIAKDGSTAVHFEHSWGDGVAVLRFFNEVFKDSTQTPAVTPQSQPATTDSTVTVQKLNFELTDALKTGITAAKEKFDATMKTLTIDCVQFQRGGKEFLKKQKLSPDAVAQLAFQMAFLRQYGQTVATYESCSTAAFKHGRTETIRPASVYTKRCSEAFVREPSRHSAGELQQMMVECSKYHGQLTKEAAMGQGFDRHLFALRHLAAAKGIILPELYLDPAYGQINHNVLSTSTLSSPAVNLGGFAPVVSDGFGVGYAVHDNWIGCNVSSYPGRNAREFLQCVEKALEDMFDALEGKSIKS
pIC50: −log10 of the molar value.
Classify as follows. Reported pIC50 greater than or equal to 5: yes (1). Reported pIC50 below: no (0).

Could you tell me if the measured pIC50 of N#Cc1ccc(C#C[C@H]2CCCCN2C(=O)COc2ccccc2)cc1 reaches 5 or more?
no (0)

Could you tell me if the measured pIC50 of CCCN(c1cc(C(=O)Nc2ccn(CC(=O)O)n2)cc2c1OCO2)S(=O)(=O)c1cc(Cl)ccc1OC reaches 5 or more?
no (0)

Could you tell me if the measured pIC50 of CCN(c1cc(C(=O)Nc2ccc(CC(=O)O)cc2)cc2c1OCO2)S(=O)(=O)c1cc(Cl)ccc1OC reaches 5 or more?
no (0)

Could you tell me if the measured pIC50 of COc1ccc(Cl)cc1S(=O)(=O)N(C)c1cc(C(=O)Nc2nc(CC(=O)O)cs2)cc2c1OCO2 reaches 5 or more?
no (0)

Could you tell me if the measured pIC50 of Cc1cc(C)cc(S(=O)(=O)n2ccc3ccc(C(=O)Nc4ccc(C(=O)O)cc4)cc32)c1 reaches 5 or more?
yes (1)

Could you tell me if the measured pIC50 of COc1ccc(Cl)cc1S(=O)(=O)N1CC(C)c2ccc(C(=O)Nc3ccc(C(=O)O)c(F)c3)cc21 (centres undefined) reaches 5 or more?
yes (1)

Could you tell me if the measured pIC50 of COc1ccc(Cl)cc1S(=O)(=O)c1c[nH]c2ccc(C(=O)Nc3ccccc3)cc12 reaches 5 or more?
no (0)

Could you tell me if the measured pIC50 of Cc1cc(-c2nc([C@H]3CCCCN3C(=O)COc3ccccc3)no2)[nH]n1 reaches 5 or more?
no (0)
